# experimental.setup: in ethyl acetate, 323.15 K
reported.property: solubility (mole fraction)
Answers are plain numbers.

Query :: If you can, please state the reported solubility (mole fraction) value of O=P(NC1CCCCC1)(Oc1ccccc1)Oc1ccccc1 .
Result :: 0.166

====

# experimental.setup: in ethanol, 303.15 K
reported.property: solubility (mole fraction)
One number for each entry.

Query :: If you can, please state the reported solubility (mole fraction) value of O=P(NC1CCCCC1)(Oc1ccccc1)Oc1ccccc1 .
Result :: 0.0638

====

# experimental.setup: in benzene, 298.15 K
reported.property: solubility (mole fraction)
Answers are plain numbers.

Query :: If you can, please state the reported solubility (mole fraction) value of O=P(NC1CCCCC1)(Oc1ccccc1)Oc1ccccc1 .
Result :: 0.0991
